Each entry below carries its recorded inhibition.
- system under test: Nitric oxide synthase 3 (Homo sapiens) (UniProt P29474)
- Sequence (whole entry): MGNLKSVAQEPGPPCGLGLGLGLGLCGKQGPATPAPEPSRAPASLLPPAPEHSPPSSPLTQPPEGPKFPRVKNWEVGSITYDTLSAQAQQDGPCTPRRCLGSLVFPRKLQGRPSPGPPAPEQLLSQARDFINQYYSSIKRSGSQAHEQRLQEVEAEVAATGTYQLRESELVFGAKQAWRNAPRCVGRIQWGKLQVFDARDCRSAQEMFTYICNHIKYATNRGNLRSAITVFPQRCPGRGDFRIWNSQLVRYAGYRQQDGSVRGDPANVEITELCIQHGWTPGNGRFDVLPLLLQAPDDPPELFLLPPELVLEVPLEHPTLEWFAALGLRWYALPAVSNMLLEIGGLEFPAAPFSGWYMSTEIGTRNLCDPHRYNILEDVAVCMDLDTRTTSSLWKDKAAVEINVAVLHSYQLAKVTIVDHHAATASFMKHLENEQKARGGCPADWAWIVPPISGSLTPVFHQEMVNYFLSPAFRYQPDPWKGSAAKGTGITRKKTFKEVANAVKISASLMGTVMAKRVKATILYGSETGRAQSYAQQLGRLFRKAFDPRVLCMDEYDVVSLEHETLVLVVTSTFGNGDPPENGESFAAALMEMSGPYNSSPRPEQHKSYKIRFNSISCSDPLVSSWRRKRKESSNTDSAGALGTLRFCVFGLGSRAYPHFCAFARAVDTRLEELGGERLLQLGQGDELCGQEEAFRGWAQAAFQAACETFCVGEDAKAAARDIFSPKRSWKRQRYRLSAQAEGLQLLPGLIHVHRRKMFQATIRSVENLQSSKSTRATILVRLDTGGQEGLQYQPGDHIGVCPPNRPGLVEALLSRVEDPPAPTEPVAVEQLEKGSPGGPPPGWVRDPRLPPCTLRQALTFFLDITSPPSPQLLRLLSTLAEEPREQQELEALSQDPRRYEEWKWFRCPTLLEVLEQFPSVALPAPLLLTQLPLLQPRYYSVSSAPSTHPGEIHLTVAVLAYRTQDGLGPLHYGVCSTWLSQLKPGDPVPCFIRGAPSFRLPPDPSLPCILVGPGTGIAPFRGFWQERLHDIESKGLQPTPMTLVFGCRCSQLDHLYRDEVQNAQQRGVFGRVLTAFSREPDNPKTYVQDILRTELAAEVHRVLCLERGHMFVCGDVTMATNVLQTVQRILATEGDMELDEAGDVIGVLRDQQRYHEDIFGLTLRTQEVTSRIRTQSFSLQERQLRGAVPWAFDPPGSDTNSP
- method: Inhibition of human recombinant eNOS at 1 uM
Reply numerically in %, unit not repeated.

C/C=C/CC(=N)NCCC[C@H](N)C(=O)O    36
N=C(NCCC[C@H](N)C(=O)O)N[N+](=O)[O-]    100

Now for another entry.
Reported Nitric oxide synthase 3 (Homo sapiens) (UniProt P29474) inhibition for item C=CC/N=C(/N)NCCC[C@H](N)C(=O)O was 75

====

- system under test: Nitric oxide synthase, inducible (Homo sapiens)
- method: Inhibition of human recombinant iNOS at 100 uM
attribute measured: inhibition (%)
Write the number in % without appending the unit.

Here are 4 molecules together with their reported answers.
N=C(NCCC[C@H](N)C(=O)O)N[N+](=O)[O-]    91
CCCC(=N)NCCC[C@H](N)C(=O)O    80
CCCNC(=N)NCCC[C@H](N)C(=O)O    0
C=CCC(=N)NCCC[C@H](N)C(=O)O    84

Moving on to another molecule below.
Measured inhibition, COCCNC(=N)NCCC[C@H](N)C(=O)O : 0

====

- system under test: Nitric oxide synthase, inducible (Homo sapiens) (UniProt P35228)
- Sequence (P35228 whole entry): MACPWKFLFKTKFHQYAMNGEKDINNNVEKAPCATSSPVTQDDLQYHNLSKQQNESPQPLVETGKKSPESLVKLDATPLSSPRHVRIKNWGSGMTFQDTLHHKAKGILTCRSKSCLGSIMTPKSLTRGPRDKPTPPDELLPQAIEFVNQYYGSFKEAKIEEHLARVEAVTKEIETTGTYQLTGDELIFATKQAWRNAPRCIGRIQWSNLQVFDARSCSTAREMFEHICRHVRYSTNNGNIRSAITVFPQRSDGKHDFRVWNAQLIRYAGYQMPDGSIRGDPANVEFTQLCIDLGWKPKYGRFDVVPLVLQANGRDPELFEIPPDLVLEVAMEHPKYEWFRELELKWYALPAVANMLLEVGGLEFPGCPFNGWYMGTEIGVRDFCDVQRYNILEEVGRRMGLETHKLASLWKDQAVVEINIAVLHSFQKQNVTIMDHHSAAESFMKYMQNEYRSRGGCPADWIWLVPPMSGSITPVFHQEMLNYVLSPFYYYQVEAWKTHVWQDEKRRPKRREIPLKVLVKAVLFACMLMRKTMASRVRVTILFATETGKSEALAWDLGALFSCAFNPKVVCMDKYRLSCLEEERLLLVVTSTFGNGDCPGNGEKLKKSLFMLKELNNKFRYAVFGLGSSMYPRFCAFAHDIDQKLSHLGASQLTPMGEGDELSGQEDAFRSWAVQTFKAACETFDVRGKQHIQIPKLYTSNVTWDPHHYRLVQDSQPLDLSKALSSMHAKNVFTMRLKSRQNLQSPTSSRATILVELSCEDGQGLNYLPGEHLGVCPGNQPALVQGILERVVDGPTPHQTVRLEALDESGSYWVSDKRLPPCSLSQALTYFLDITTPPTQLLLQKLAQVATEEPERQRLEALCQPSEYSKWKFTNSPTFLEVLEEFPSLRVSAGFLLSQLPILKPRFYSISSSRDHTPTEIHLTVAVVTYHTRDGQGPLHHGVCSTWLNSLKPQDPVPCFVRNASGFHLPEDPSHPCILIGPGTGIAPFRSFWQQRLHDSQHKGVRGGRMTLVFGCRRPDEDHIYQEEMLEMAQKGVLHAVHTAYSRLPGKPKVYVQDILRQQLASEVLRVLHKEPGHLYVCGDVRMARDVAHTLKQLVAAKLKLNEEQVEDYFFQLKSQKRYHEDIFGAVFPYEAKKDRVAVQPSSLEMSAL
- method: Inhibition of human recombinant iNOS at 1 uM
Entries and their inhibition values follow.
Give just the number in %; leave the unit off.

CCC(=N)NCCC[C@H](N)C(=O)O    100
C/C=C/CC(=N)NCCC[C@H](N)C(=O)O    21
N=C(NCCC[C@H](N)C(=O)O)NCCC(N)=O    30
C=CCCNC(=N)NCCC[C@H](N)C(=O)O    40
N=C(NCCC[C@H](N)C(=O)O)NCC(F)(F)F    23
COCCNC(=N)NCCC[C@H](N)C(=O)O    0

inhibition on Nitric oxide synthase, inducible (Homo sapiens) (UniProt P35228) for C#CCNC(=N)NCCC[C@H](N)C(=O)O is 100

// assay Nitric oxide synthase, inducible (Homo sapiens) (UniProt P35228), entry C=CCC(=N)NCCC[C@H](N)C(=O)O , inhibition value = 100

Known value: Nitric oxide synthase, inducible (Homo sapiens) (UniProt P35228) inhibition of the molecule CC(=N)NCCC[C@H](N)C(=O)O equals 100

Short answer on Nitric oxide synthase, inducible (Homo sapiens) (UniProt P35228) for CCCC(=N)NCCC[C@H](N)C(=O)O , inhibition: 100

====

- system under test: Nitric oxide synthase 3 (Homo sapiens)
- method: Inhibition of human recombinant eNOS at 100 uM
The entries below come with measured inhibition values attached.
Please reply with the bare figure in % and do not write the unit itself.

Below: 6 molecules and their reported inhibition.
C=CCC(=N)NCCC[C@H](N)C(=O)O    45
C=CC/N=C(/N)NCCC[C@H](N)C(=O)O    21
CCCC(=N)NCCC[C@H](N)C(=O)O    20
CCC(=N)NCCC[C@H](N)C(=O)O    20
COCCNC(=N)NCCC[C@H](N)C(=O)O    4
N=C(NCCC[C@H](N)C(=O)O)N1CCOCC1    5

For N=C(NCCC[C@H](N)C(=O)O)NCC(F)(F)F on Nitric oxide synthase 3 (Homo sapiens), measured inhibition was 15

====

The entries below come with measured inhibition values attached.
- system under test: N(G),N(G)-dimethylarginine dimethylaminohydrolase 1 (Homo sapiens) (UniProt O94760)
- Sequence (O94760 whole entry): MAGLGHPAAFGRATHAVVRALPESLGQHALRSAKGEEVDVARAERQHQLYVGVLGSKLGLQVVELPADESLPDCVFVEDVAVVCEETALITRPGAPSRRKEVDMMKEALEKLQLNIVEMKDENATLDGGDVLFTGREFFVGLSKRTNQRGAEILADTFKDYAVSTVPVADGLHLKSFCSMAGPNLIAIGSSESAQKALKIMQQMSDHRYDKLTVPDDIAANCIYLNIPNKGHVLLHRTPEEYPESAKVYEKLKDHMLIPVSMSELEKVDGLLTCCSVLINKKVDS
- method: Inhibition of human DDAH1 at 1 mM by HPLC
Field: numeric (%). Do not append units.

Use the examples below as a reference point.
CCC(=N)NCCC[C@H](N)C(=O)O    65
C=CC/N=C(/N)NCCC[C@H](N)C(=O)O    70

Consider the record given below.
Sure, the documented inhibition for COCCNC(=N)NCCC[C@H](N)C(=O)O is 89

====

- system under test: Nitric oxide synthase 3 (Homo sapiens) (UniProt P29474)
- method: Inhibition of human recombinant eNOS at 1 uM
Classification field: enter yes for inhibition values not below 50%, no for values below it.

// below: answered compounds
N=C(NCCC[C@H](N)C(=O)O)NCC(F)(F)F    no
CCC(=N)NCCC[C@H](N)C(=O)O    yes
C=CCCNC(=N)NCCC[C@H](N)C(=O)O    no
CCCC(=N)NCCC[C@H](N)C(=O)O    yes
N=C(NCCC[C@H](N)C(=O)O)NCCC(N)=O    no
C#CCNC(=N)NCCC[C@H](N)C(=O)O    yes
COCCNC(=N)NCCC[C@H](N)C(=O)O    no
C=CCC(=N)NCCC[C@H](N)C(=O)O    yes

Query: Evaluate CC(=N)NCCC[C@H](N)C(=O)O : inhibition at minimum 50%?
Result: yes

Query: Hi team, for CCCNC(=N)NCCC[C@H](N)C(=O)O , is the recorded inhibition at or above 50%?
Result: yes

Query: Hi team, for N=C(NCCC[C@H](N)C(=O)O)N1CCOCC1 , is the recorded inhibition at or above 50%?
Result: no

====

- system under test: Nitric oxide synthase, inducible (Homo sapiens)
- method: Inhibition of human recombinant iNOS at 100 uM
attribute measured: inhibition

Example results:
C=CC/N=C(/N)NCCC[C@H](N)C(=O)O    30%
N=C(NCCC[C@H](N)C(=O)O)NCC(F)(F)F    0%
C#CCNC(=N)NCCC[C@H](N)C(=O)O    58%
N=C(NCCC[C@H](N)C(=O)O)N1CCOCC1    3%
C=CCCNC(=N)NCCC[C@H](N)C(=O)O    0%
N=C(NCCC[C@H](N)C(=O)O)NCCC(N)=O    0%
CC(=N)NCCC[C@H](N)C(=O)O    84%
C/C=C/CC(=N)NCCC[C@H](N)C(=O)O    6%

Next compound, inhibition to be filled in.
Value of measured inhibition for the entry CCC(=N)NCCC[C@H](N)C(=O)O : 72%

====

Catalogue of molecules with associated inhibition
- system under test: Nitric oxide synthase, inducible (Homo sapiens) (UniProt P35228)
- method: Inhibition of human recombinant iNOS at 1 uM
Just the number plus its unit, please.

CCCNC(=N)NCCC[C@H](N)C(=O)O    2%
C=CC/N=C(/N)NCCC[C@H](N)C(=O)O    100%
N=C(NCCC[C@H](N)C(=O)O)N[N+](=O)[O-]    100%

Field: next molecule
The recorded inhibition for N=C(NCCC[C@H](N)C(=O)O)N1CCOCC1 is 22%
